Items are presented alongside their recorded ERYTHROCYTE COUNT.
Species on record: Rattus norvegicus
Assay: DrugMatrix - Regimen: Daily Repeat
Format: toxicity, organism-based, Sprague-Dawley
Design: regimen Daily Repeat, gender Male, age 6-8 weeks
Details: in vivo, po, 10 mg/kg, 120 h, tissue Blood, route oral GAVAGE, dose level Low, time 5 day, vehicle .5 % CMC
PROPERTY NAME: ERYTHROCYTE COUNT (x10E6/uL)

MOLECULE | PROPERTY NAME | MEAS VALUE
O=C1CN=C(c2ccccc2Cl)c2cc([N+](=O)[O-])ccc2N1 | ERYTHROCYTE COUNT | 5.74
Fc1ccc(C(c2ccc(F)cc2)N2CCN(C/C=C/c3ccccc3)CC2)cc1 | ERYTHROCYTE COUNT | 5.61
O=C1C(CC[S+]([O-])c2ccccc2)C(=O)N(c2ccccc2)N1c1ccccc1 (centres undefined) | ERYTHROCYTE COUNT | 5.27
CNCCC(Oc1ccc(C(F)(F)F)cc1)c1ccccc1 (centres undefined) | ERYTHROCYTE COUNT | 6.65
